- Test system: HeLa Kyoto;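 further: HeLa Kyoto cells arrested at G1/S by double thymidine block, proteins quantified by TMT10plex mass spectrometry in mild NP-40 versus SDS extracts, three biological replicates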
- PROTOCOL: solubility in G1/S (NP-40 vs SDS abundance) (log2 ratio); higher = more soluble
- PARTICULARS: cell cycle stage: G1/S

- BIOSEQUENCE: "MSSNECFKCGRSGHWARECPTGGGRGRGMRSRGRGGFTSDRGFQFVSSSLPDICYRCGESGHLAKDCDLQEDACYNCGRGGHIAKDCKEPKREREQCCYNCGKPGHLARDCDHADEQKCYSCGEFGHIQKDCTKVKCYRCGETGHVAINCSKTSEVNCYRCGESGHLARECTIEATA [CNBP]"
  solubility in G1/S (log2): -0.223
- BIOSEQUENCE: "MQWNVPRTVSRLARRTCLEPHNAGLFGHCQNVKGPLLLYNAESKVVLVQGPQKQWLHLSAAQCVAKERRPLDAHPPQPGVLRHKQGKQHVSFRRVFSSSATAQGTPEKKEEPDPLQDKSISLYQRFKKTFRQYGKVLIPVHLITSGVWFGTFYYAALKGVNVVPFLELIGLPDSVVSILKNSQSGNALTAYALFKIATPARYTVTLGGTSVTVKYLRSHGYMSTPPPVKEYLQDRMEETKELITEKMEETKDRLTEKLQETKEKVSFKKKVE [FAM210A]"
  solubility in G1/S (log2): 0.234
- BIOSEQUENCE: "MSNMEKHLFNLKFAAKELSRSAKKCDKEEKAEKAKIKKAIQKGNMEVARIHAENAIRQKNQAVNFLRMSARVDAVAARVQTAVTMGKVTKSMAGVVKSMDATLKTMNLEKISALMDKFEHQFETLDVQTQQMEDTMSSTTTLTTPQNQVDMLLQEMADEAGLDLNMELPQGQTGSVGTSVASAEQDELSQRLARLRDQV [CHMP1B]"
  solubility in G1/S (log2): 0.304
- BIOSEQUENCE: "MAAAFRKAAKSRQREHRERSQPGFRKHLGLLEKKKDYKLRADDYRKKQEYLKALRKKALEKNPDEFYYKMTRVKLQDGVHIIKETKEEVTPEQLKLMRTQDVKYIEMKRVAEAKKIERLKSELHLLDFQGKQQNKHVFFFDTKKEVEQFDVATHLQTAPELVDRVFNRPRIETLQKEKVKGVTNQTGLKRIAKERQKQYNCLTQRIEREKKLFVIAQKIQTRKDLMDKTQKVKVKKETVNSPAIYKFQSRRKR [UTP11L]"
  solubility in G1/S (log2): -2.71
- BIOSEQUENCE: "MAAAAVSGALGRAGWRLLQLRCLPVARCRQALVPRAFHASAVGLRSSDEQKQQPPNSFSQQHSETQGAEKPDPESSHSPPRYTDQGGEEEEDYESEEQLQHRILTAALEFVPAHGWTAEAIAEGAQSLGLSSAAASMFGKDGSELILHFVTQCNTRLTRVLEEEQKLVQLGQAEKRKTDQFLRDAVETRLRMLIPYIEHWPRALSILMLPHNIPSSLSLLTSMVDDMWHYAGDQSTDFNWYTRRAMLAAIYNTTELVMMQDSSPDFEDTWRFLENRVNDAMNMGHTAKQVKSTGEALVQGLMGAAVTLKNLTGLNQRR [COQ9]"
  solubility in G1/S (log2): 0.16
- BIOSEQUENCE: "MESGAYGAAKAGGSFDLRRFLTQPQVVARAVCLVFALIVFSCIYGEGYSNAHESKQMYCVFNRNEDACRYGSAIGVLAFLASAFFLVVDAYFPQISNATDRKYLVIGDLLFSALWTFLWFVGFCFLTNQWAVTNPKDVLVGADSVRAAITFSFFSIFSWGVLASLAYQRYKAGVDDFIQNYVDPTPDPNTAYASYPGASVDNYQQPPFTQNAETTEGYQPPPVY [SYNGR2]"
  solubility in G1/S (log2): 0.192
